The measurements presented in this section are drawn from ChEMBL document CHEMBL4033742.

- test: Fraction unbound in mouse plasma
- Type: ADME, cell-free
Listed next: entries and their corresponding fraction unbound.
endpoint_name: fraction unbound

1) COc1ccc2ncc(F)c([C@@H](O)CC[C@@H]3CCN(C4CC(c5ccccc5)C4)C[C@@H]3C(=O)O)c2c1 (some centres undefined)    0.15 to 0.158
2) COc1ccc2ncc(F)c([C@@H](O)CC[C@@H]3CCN(C4CC(c5cc(F)ccc5F)C4)C[C@@H]3C(=O)O)c2n1 (some centres undefined)    0.131 to 0.242
3) COc1ccc2nccc([C@@H](O)CC[C@@H]3CCN(C4CC(c5ccccc5)C4)C[C@@H]3C(=O)O)c2c1 (some centres undefined)    0.129 to 0.246
4) COc1ccc2ncc(F)c([C@@H](O)CC[C@@H]3CCN(C4CC(c5cc(F)ccc5F)C4)C[C@@H]3C(=O)O)c2c1 (some centres undefined)    0.201

* * *

Listed next: entries and their corresponding Ratio.
- test: Ratio of fAUC in fluoroquinolone-resistant Staphylococcus aureus infected mouse neutropenic thigh model to MIC for fluoroquinolone-resistant Staphylococcus aureus
endpoint_name: Ratio

1. N#Cc1ccc2ccc(=O)n(CCN3CC[C@H](NCc4cc5c(cn4)OCCO5)[C@H](F)C3)c2c1    36
2. COc1ccc2ncc(F)c(C[C@H](O)[C@@H]3CC[C@@H](NCc4cc5c(nn4)OCCS5)CO3)c2n1    43
3. COc1ccc2ncc(F)c([C@@H](O)CC[C@@H]3CCN(C4CC(c5cc(F)ccc5F)C4)C[C@@H]3C(=O)O)c2c1 (some centres undefined)    39
4. O=c1ccc2ncc(=O)n3c2n1C[C@H]3CN1CCC(NCc2cc3c(cn2)OCCC3)CC1 [GEPOTIDACIN]    13.4

* * *

- test: Cmax in human
- Type: ADME
endpoint_name: Cmax

1. O=c1ccc2ncc(=O)n3c2n1C[C@H]3CN1CCC(NCc2cc3c(cn2)OCCC3)CC1 [GEPOTIDACIN]    7000 to 13000 ng/mL

* * *

- Test system: Streptococcus pyogenes
- test: Antibacterial activity against Streptococcus pyogenes
- Format: functional
endpoint_name: MIC90 (µg/mL)

1) COc1ccc2ncc(F)c([C@@H](O)CC[C@@H]3CCN(C4CC(c5ccc(F)s5)C4)C[C@@H]3C(=O)O)c2c1 (stereo partly drawn)    0.5
2) COc1ccc2ncc(F)c([C@@H](O)CC[C@@H]3CCN(C4CC(c5cc(F)cc(F)c5)C4)C[C@@H]3C(=O)O)c2c1 (stereo partly drawn)    1
3) O=c1ccc2ncc(F)c3c2n1C[C@@]3(O)CN1CCC(NCc2cc3c(cn2)OCCO3)CC1    0.125
4) COc1ccc2ncc(F)c([C@@H](O)CC[C@@H]3CCN(C4CC(c5ccccc5F)C4)C[C@@H]3C(=O)O)c2c1 (stereo partly drawn)    0.5
5) COc1ccc2ncc(F)c([C@@H](O)CC[C@@H]3CCN(C4CC(c5c(F)cccc5F)C4)C[C@@H]3C(=O)O)c2c1 (stereo partly drawn)    0.5
6) COc1ccc2ncc(F)c([C@@H](O)CC[C@@H]3CCN(C4CC(c5ccccc5)C4)C[C@@H]3C(=O)O)c2c1 (stereo partly drawn)    1
7) COc1ccc2ncc(F)c([C@@H](O)CC[C@@H]3CCN(C4CC(c5cccs5)C4)C[C@@H]3C(=O)O)c2c1 (stereo partly drawn)    0.5
